tested on: SK-OV-3 ovarian; assay: NCI tumour cell line growth inhibition, 48 h; in the data active = GI50 below about 0.43 µM; inactive = the rest
Reply using exactly one outcome from label 1 (active), label 0 (inactive)

>>> class_name("COc1ccc(/C=C\\c2cc(OC)c(OC)c(OC)c2)cc1")
"label 0"
>>> class_name("O=[N+]([O-])/C=C/c1ccc(Cl)cc1[N+](=O)[O-]")
"label 0"
>>> class_name("COc1cc2cc(Oc3cccc(NC(=O)Nc4cc(C(F)(F)F)cc(C(F)(F)F)c4)c3)c(C)nc2cc1OC")
"label 0"
>>> class_name("Cc1ccc(C2CC(c3ccc(Nc4ccnc5cc(Cl)ccc45)cc3)=NN2C=O)cc1 (stereo unspecified)")
"label 0"
>>> class_name("COc1cc(-c2nn(-c3cccc(NC(=O)CCNc4ccc(N5CCOCC5)cc4)c3)cc2-c2ccncc2)ccc1Cl")
"label 0"

What did this assay record as the result for `CCn1c(-c2nonc2N)nc2cnc(Oc3cccc(NC(=O)c4ccc(N(C)C)cc4)c3)cc21` ?
label 0

Same again, this time with `O=C1Nc2ccc3c(c2/C1=C\c1cc2c(cc1Br)OCO2)OCO3`
label 0

Quick one: `COc1ccc2c(c1OC)O/C(=C\c1ncc([N+](=O)[O-])n1C)C2=O`
label 0

How about `NC(=O)/C(=C/n1cnc(-c2cc(C(F)(F)F)cc(C(F)(F)F)c2)n1)c1cncnc1` ?
label 0

// repeat for `COc1cc(-c2nn(-c3cccc(NC(=O)CCN4CCN(c5ccccc5)CC4)c3)cc2-c2ccncc2)ccc1Cl` and report
label 0

And COc1ccc(C(O)c2cc3c(N)c(C(=O)Nc4cccc(Br)c4C)sc3nc2C)cc1 (stereo unspecified) ?
label 1
